IC50, Wild Type ALK kinase (Homo sapiens, UniProt Q9UM73): measured values
measure.name: IC50 (nM)

INSERT INTO results (compound, quantitative_result) VALUES
  ('Cc1cc(Nc2ncc(Cl)c(Nc3cn(C)nc3S(=O)(=O)C(C)C)n2)c(OC2CC2)cc1C1CCN(C2CC2)CC1 [Final product 157]', 7);

[I] Cc1cc(Nc2ncc(Cl)c(Nc3cn(C)nc3S(=O)(=O)C(C)C)n2)c(OC(C)C)cc1C1CCN(C)C1 (stereo not drawn) [Final product 37]
[II] Cc1cc(Nc2ncc(Cl)c(Nc3cn(C)nc3S(=O)(=O)C(C)C)n2)c(OC2CCC2)cc1C1CCN(CCO)CC1 [Final product 138]
Input line: Select one. Lower IC50: I or II Record your answer as the label of the chosen record.
Output line: II
(II: 4 nM, I: 7 nM)
